Measured GFP response vs DMSO by item
assayComment: TOR pathway LAP4-GFP level changes – S. cerevisiae, multiplex flow cytometry, primary screen (AID 1873)
runConditions: S. cerevisiae LAP4-GFP expression, 3 h, at 10 µM, hits give high values
Results filed as inconclusive are left out.
State just the number; it will be interpreted in %.

Example cases with answers are listed next.
>>> observed("O=c1c2ccccc2nc2n1CCCN2")
98.2
>>> observed("COc1ccc(C(=O)c2oc3ccc(Br)cc3c2NC(C)=O)cc1")
82

In plain terms, `c1ccc(SSc2ccccc2)cc1` has a documented GFP response vs DMSO of 96.6

Looking up `O=C(Cc1ccccc1[N+](=O)[O-])NCCCN1CCOCC1` , I see its GFP response vs DMSO listed as 107

Reported GFP response vs DMSO ( `CCOc1ccc(C(=O)NCC2(c3ccccc3)CCOCC2)cc1` ) = 105

For this molecule ( COc1cc2nc(N3CCN(C(=O)C4CCCO4)CC3)nc(N)c2cc1OC (stereo unspecified) ), measured GFP response vs DMSO is 92.6

# GFP response vs DMSO of CCC[C@@H]1C[C@@H](C(=O)N[C@H]([C@@H](C)O)[C@H]2O[C@H](SC)[C@H](O)[C@@H](O)C2O)N(C)C1 (stereo partly specified) = 80.9

Record `O=C(O)C1CCN(C(=O)COc2ccc3c4c(c(=O)oc3c2)CCC4)CC1` , field GFP response vs DMSO: 112

// `O=C(Nc1ccccc1C(=O)N1CCCCCC1)c1ccccc1Cl` : GFP response vs DMSO value = 96.5

// GFP response vs DMSO value for `Cc1[nH]nc(-c2ccc(O)cc2O)c1Oc1ccccc1` : 93.3

get_value(item= CC1(C)c2ccccc2N2CC(=O)NC21/C=C/c1ccco1 (stereo unspecified) , readout=GFP response vs DMSO) returns 100
